Quick reference for MIC among some molecules
test system: Benjaminiella poitrasii; test: Antifungal activity at Benjaminiella poitrasii; type: functional
Kindly provide the numeric value in µg/mL only, without the unit symbol.

Answered cases to consult:
[
  {
    "molecule": "CC(=O)OCCC[C@@H](C)[C@H]1CC[C@H]2[C@@H]3[C@H](OC(C)=O)C[C@@H]4C[C@@H](NC(=O)CCNC(=O)CCNC(=O)CCNC(=O)CCNC(=O)OC(C)(C)C)CC[C@]4(C)[C@H]3C[C@H](O)[C@]12C",
    "recorded metric": "MIC",
    "measured value": 64
  },
  {
    "molecule": "COC(=O)CC[C@@H](C)[C@H]1CC[C@H]2[C@@H]3[C@H](O)C[C@@H]4C[C@@H](NC(=O)CCNC(=O)CCNC(=O)CCNC(=O)CCNC(=O)OC(C)(C)C)CC[C@]4(C)[C@H]3C[C@H](O)[C@]12C",
    "recorded metric": "MIC",
    "measured value": 16
  },
  {
    "molecule": "COC(=O)CC[C@@H](C)[C@H]1CC[C@H]2[C@@H]3[C@H](O)C[C@@H]4C[C@@H](NC(=O)CNC(=O)CNC(=O)CNC(=O)CNC(=O)OC(C)(C)C)CC[C@]4(C)[C@H]3C[C@H](O)[C@]12C",
    "recorded metric": "MIC",
    "measured value": 64
  },
  {
    "molecule": "C[C@H](CCC(=O)O)[C@H]1CC[C@H]2[C@@H]3[C@H](O)C[C@@H]4C[C@H](O)CC[C@]4(C)[C@H]3C[C@H](O)[C@]12C [CHOLIC ACID]",
    "recorded metric": "MIC",
    "measured value": 128
  },
  {
    "molecule": "CC(=O)OCCC[C@@H](C)[C@H]1CC[C@H]2[C@@H]3[C@H](OC(C)=O)C[C@@H]4C[C@@H](NC(=O)CNC(=O)CNC(=O)CNC(=O)CNC(=O)OC(C)(C)C)CC[C@]4(C)[C@H]3C[C@H](O)[C@]12C",
    "recorded metric": "MIC",
    "measured value": 32
  },
  {
    "molecule": "C[C@H](CCC(=O)O)[C@H]1CC[C@H]2[C@@H]3[C@H](O)C[C@@H]4C[C@@H](NC(=O)CCNC(=O)CCNC(=O)CCNC(=O)CCN)CC[C@]4(C)[C@H]3C[C@H](O)[C@]12C",
    "recorded metric": "MIC",
    "measured value": 24
  },
  {
    "molecule": "CC(=O)OCCC[C@@H](C)[C@H]1CC[C@H]2[C@@H]3[C@H](OC(C)=O)C[C@@H]4C[C@@H](NC(=O)CNC(=O)CNC(=O)CNC(=O)CN)CC[C@]4(C)[C@H]3C[C@H](O)[C@]12C",
    "recorded metric": "MIC",
    "measured value": 16
  },
  {
    "molecule": "C[C@H](CCCO)[C@H]1CC[C@H]2[C@@H]3[C@H](O)C[C@@H]4C[C@@H](NC(=O)CCNC(=O)CCNC(=O)CCNC(=O)CCN)CC[C@]4(C)[C@H]3C[C@H](O)[C@]12C",
    "recorded metric": "MIC",
    "measured value": 64
  },
  {
    "molecule": "COC(=O)CC[C@@H](C)[C@H]1CC[C@H]2[C@@H]3[C@H](O)C[C@@H]4C[C@@H](NC(=O)CNC(=O)CNC(=O)CNC(=O)CN)CC[C@]4(C)[C@H]3C[C@H](O)[C@]12C",
    "recorded metric": "MIC",
    "measured value": 64
  },
  {
    "molecule": "OC(Cn1cncn1)(Cn1cncn1)c1ccc(F)cc1F [FLUCONAZOLE]",
    "recorded metric": "MIC",
    "measured value": 32
  }
]

Ask: Entry CC(CCC(=O)O)C1CCC2C3C(O)CC4CC(NC(=O)CCNC(=O)CCNC(=O)CCNC(=O)CCNC(=O)OC(C)(C)C)CCC4(C)C3CC(O)C12C (centres undefined) has what MIC?
Result: 48

Ask: One more molecule: C[C@@H]1[C@H](O)[C@@H](C)/C=C/C=C/C=C/C=C/C=C/C=C/C=C/[C@H](O[C@@H]2O[C@H](C)[C@@H](O)[C@H](N)[C@@H]2O)C[C@@H]2O[C@](O)(C[C@@H](O)C[C@@H](O)[C@H](O)CC[C@@H](O)C[C@@H](O)CC(=O)O[C@H]1C)C[C@H](O)[C@H]2C(=O)O [AMPHOTERICIN B]
Result: 16

Ask: One more molecule: COC(=O)CC[C@@H](C)[C@H]1CC[C@H]2[C@@H]3[C@H](O)C[C@@H]4C[C@@H](NC(=O)CCNC(=O)CCNC(=O)CCNC(=O)CCN)CC[C@]4(C)[C@H]3C[C@H](O)[C@]12C
Result: 24

* * *

Quick reference for MIC among some compounds
tested on: Staphylococcus aureus; assay: Antibacterial activity at Staphylococcus aureus; assay type: functional
Kindly provide the numeric value in µg/mL only, without the unit symbol.

[
  {
    "structure notation": "CC(=O)OCCC[C@@H](C)[C@H]1CC[C@H]2[C@@H]3[C@H](OC(C)=O)C[C@@H]4C[C@@H](NC(=O)CCNC(=O)CCNC(=O)CCNC(=O)CCNC(=O)OC(C)(C)C)CC[C@]4(C)[C@H]3C[C@H](O)[C@]12C",
    "reading unit": "µg/mL",
    "MIC": 32
  },
  {
    "structure notation": "COC(=O)CC[C@@H](C)[C@H]1CC[C@H]2[C@@H]3[C@H](O)C[C@@H]4C[C@@H](NC(=O)CNC(=O)CNC(=O)CNC(=O)CN)CC[C@]4(C)[C@H]3C[C@H](O)[C@]12C",
    "reading unit": "µg/mL",
    "MIC": 96
  }
]

Moving on to the next compound.
Ask: Entry COC(=O)CC[C@@H](C)[C@H]1CC[C@H]2[C@@H]3[C@H](O)C[C@@H]4C[C@@H](NC(=O)CNC(=O)CNC(=O)CNC(=O)CNC(=O)OC(C)(C)C)CC[C@]4(C)[C@H]3C[C@H](O)[C@]12C has what MIC?
Result: 32

* * *

tested on: MCF7; experiment: Antiproliferative activity against human MCF7 cells by MTT assay; assay type: functional, cell-based
recorded metric: pIC50
Please note pIC50 is a logarithmic value: minus log10 of concentration in mol/L. Answer with that number alone.

[
  {
    "structure notation": "CC(=O)OCCC[C@@H](C)[C@H]1CC[C@H]2[C@@H]3[C@H](OC(C)=O)C[C@@H]4C[C@@H](NC(=O)CNC(=O)CNC(=O)CNC(=O)CNC(=O)OC(C)(C)C)CC[C@]4(C)[C@H]3C[C@H](O)[C@]12C",
    "study target": "MCF7",
    "pIC50": 3.30
  },
  {
    "structure notation": "C[C@H](CCC(=O)O)[C@H]1CC[C@H]2[C@@H]3[C@H](O)C[C@@H]4C[C@H](O)CC[C@]4(C)[C@H]3C[C@H](O)[C@]12C",
    "study target": "MCF7",
    "pIC50": 4.30
  },
  {
    "structure notation": "C[C@H](CCC(=O)O)[C@H]1CC[C@H]2[C@@H]3[C@H](O)C[C@@H]4C[C@@H](NC(=O)CCNC(=O)CCNC(=O)CCNC(=O)CCN)CC[C@]4(C)[C@H]3C[C@H](O)[C@]12C",
    "study target": "MCF7",
    "pIC50": 3.70
  },
  {
    "structure notation": "CC(=O)OCCC[C@@H](C)[C@H]1CC[C@H]2[C@@H]3[C@H](OC(C)=O)C[C@@H]4C[C@@H](NC(=O)CNC(=O)CNC(=O)CNC(=O)CN)CC[C@]4(C)[C@H]3C[C@H](O)[C@]12C",
    "study target": "MCF7",
    "pIC50": 3.82
  }
]

Moving on to the next molecule.
Ask: Entry CC(=O)OCCC[C@@H](C)[C@H]1CC[C@H]2[C@@H]3[C@H](OC(C)=O)C[C@@H]4C[C@@H](NC(=O)CCNC(=O)CCNC(=O)CCNC(=O)CCNC(=O)OC(C)(C)C)CC[C@]4(C)[C@H]3C[C@H](O)[C@]12C has what pIC50?
Result: 3.82

* * *

Quick reference for MIC among some molecules
test system: Escherichia coli; assay: Antibacterial activity at Escherichia coli; format: functional
Kindly provide the numeric value in µg/mL only, without the unit symbol.

[
  {
    "structure notation": "C[C@H](CCCO)[C@H]1CC[C@H]2[C@@H]3[C@H](O)C[C@@H]4C[C@@H](NC(=O)CCNC(=O)CCNC(=O)CCNC(=O)CCN)CC[C@]4(C)[C@H]3C[C@H](O)[C@]12C",
    "MIC (µg/mL)": 32
  }
]

Moving on to the next molecule.
Ask: Entry CC(=O)OCCC[C@@H](C)[C@H]1CC[C@H]2[C@@H]3[C@H](OC(C)=O)C[C@@H]4C[C@@H](NC(=O)CNC(=O)CNC(=O)CNC(=O)CNC(=O)OC(C)(C)C)CC[C@]4(C)[C@H]3C[C@H](O)[C@]12C has what MIC?
Result: 64
